- MEASUREMENT TARGET: Human recombinant PDE3A (hPDE3A) (Homo sapiens)
- Construct: purchased Scottish Biomedical; host or cells: Sf9 insect cells
- Sequence (Q14432 whole entry): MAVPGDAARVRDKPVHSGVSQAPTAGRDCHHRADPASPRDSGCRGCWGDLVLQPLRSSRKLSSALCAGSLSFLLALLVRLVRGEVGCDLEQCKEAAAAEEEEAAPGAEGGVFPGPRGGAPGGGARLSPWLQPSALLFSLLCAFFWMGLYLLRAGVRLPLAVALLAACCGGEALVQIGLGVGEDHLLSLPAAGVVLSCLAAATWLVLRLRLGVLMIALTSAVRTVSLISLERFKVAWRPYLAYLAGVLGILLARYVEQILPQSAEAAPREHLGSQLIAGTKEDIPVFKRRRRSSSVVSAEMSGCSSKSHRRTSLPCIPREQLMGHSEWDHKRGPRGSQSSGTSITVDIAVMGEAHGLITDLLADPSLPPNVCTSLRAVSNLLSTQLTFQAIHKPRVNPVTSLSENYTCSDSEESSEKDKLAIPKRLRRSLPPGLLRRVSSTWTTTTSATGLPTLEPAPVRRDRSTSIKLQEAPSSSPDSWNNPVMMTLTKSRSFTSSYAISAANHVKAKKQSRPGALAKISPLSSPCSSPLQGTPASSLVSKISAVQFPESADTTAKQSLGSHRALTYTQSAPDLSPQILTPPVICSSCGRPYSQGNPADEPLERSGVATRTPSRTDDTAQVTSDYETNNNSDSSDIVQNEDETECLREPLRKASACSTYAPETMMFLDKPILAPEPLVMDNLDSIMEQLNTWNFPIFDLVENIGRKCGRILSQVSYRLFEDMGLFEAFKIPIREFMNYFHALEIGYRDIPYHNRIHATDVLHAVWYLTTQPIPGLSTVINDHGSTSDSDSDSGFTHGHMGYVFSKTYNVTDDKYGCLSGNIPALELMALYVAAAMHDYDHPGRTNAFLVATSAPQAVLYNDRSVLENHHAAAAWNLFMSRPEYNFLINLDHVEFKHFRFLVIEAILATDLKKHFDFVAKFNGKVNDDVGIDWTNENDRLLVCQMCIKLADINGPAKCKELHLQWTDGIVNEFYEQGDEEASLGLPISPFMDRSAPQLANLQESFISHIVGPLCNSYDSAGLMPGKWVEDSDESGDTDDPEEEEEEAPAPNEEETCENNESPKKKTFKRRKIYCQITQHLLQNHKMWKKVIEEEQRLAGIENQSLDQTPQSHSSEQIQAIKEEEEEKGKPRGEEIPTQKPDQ
- PROCEDURE SUMMARY: In vitro assay PDE3A (SPA, 3H-cAMP hydrolysis);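 note: the method names PDE3A and the table heading PDE3B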
- Format: biochemical
- EXPERIMENTAL PARAMETERS: read-out: hPDE3B Emax; read-out: Emax
- Method: Human recombinant PDE3A (hPDE3A) was supplied as a partially purified insect cell lysate by Scottish Biomedical, it was cloned from human brain and expressed in Sf9 cells. Tested compounds were dissolved and diluted in 100% DMSO to a concentration 100 fold of the final concentration in the assay. […] After sedimentation of the beads during 30 min the radioactivity was measured in a Perkin Elmer Topcount scintillation counter and results were expressed as cpm. […]
Hi there, I'd appreciate the recorded Emax for every entry that follows.

1. Cn1cc(C(=O)N2[C@H]3CC[C@H](c4cc(C(F)F)nc5ncnn45)[C@@H]2CC3)c2ccccc21 [Compound 297]; 62%
2. COc1cc(C(=O)N2[C@H]3CC[C@H](c4cc(C(F)F)nc5ncnn45)[C@@H]2CC3)ccc1F [Compound 343]; 44%
3. Cc1cc([C@@H]2CN(C(=O)c3cc(Cl)ncc3Cl)CC[C@H]2C)n2ncnc2n1 [Compound 271]; 61%

Batch: Emax for all items listed.
1. Cc1cc([C@@H]2CN(C(=O)c3ccn(C)c3)CC[C@H]2C)n2ncnc2n1 [Compound 14]
2. C[C@@H]1CCN(C(=O)c2cccc(C(F)(F)F)c2F)C[C@H]1c1cc(C(F)F)nc2ncnn12 [Compound 148]
3. C[C@@H]1CCN(C(=O)c2ncccc2N)C[C@H]1c1cc(C(F)F)nc2ncnn12 [Compound 233]

1: 70%; 2: 67%; 3: 10%

Provide each entry's Emax from the list below.
1. COc1cc(C(=O)N2CC[C@@H](C)[C@H](c3cc(C(F)F)nc4ncnn34)C2)ccc1Cl [Compound 130]
2. Cc1ccc(F)c(C(=O)N2CC[C@@H](C)[C@@H](c3cc(C(F)F)nc4ncnn34)C2)n1 [Compound 222]
3. Cc1nc2cc(C(=O)N3[C@H]4CC[C@H](c5cc(C(F)F)nc6ncnn56)[C@@H]3CC4)ccc2o1 [Compound 306]
4. C[C@@H]1CCN(C(=O)c2cnc(Cl)c(Cl)c2)C[C@H]1c1cc(C(F)F)nc2ncnn12 [Compound 64]

["87%", "13%", "71%", "62%"]

---

- MEASUREMENT TARGET: Human recombinant PDE3A (hPDE3A) (Homo sapiens)
- Construct: purchased Scottish Biomedical; host or cells: Sf9 insect cells
- PROCEDURE SUMMARY: In vitro assay PDE3A (SPA, 3H-cAMP hydrolysis);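 note: the method names PDE3A and the table heading PDE3B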
- Type: biochemical
- EXPERIMENTAL PARAMETERS: hPDE3B pIC50; read-out: pIC50 (converted)
- Procedure: Human recombinant PDE3A (hPDE3A) was supplied as a partially purified insect cell lysate by Scottish Biomedical, it was cloned from human brain and expressed in Sf9 cells. Tested compounds were dissolved and diluted in 100% DMSO to a concentration 100 fold of the final concentration in the assay. […] After sedimentation of the beads during 30 min the radioactivity was measured in a Perkin Elmer Topcount scintillation counter and results were expressed as cpm. […]
Returns: string. Value is criterion met if measured IC50 is below 2 µM, and criterion not met if it is greater than or equal to it.

Recorded results for 5 compounds are shown here.
1) Cc1cc([C@@H]2CN(C(=O)c3ccc4occ(C)c4c3)CC[C@H]2C)n2ncnc2n1; criterion met
2) Cc1cc(C(=O)N2[C@H]3CC[C@H](c4cc(C(F)F)nc5ncnn45)[C@@H]2CC3)cnc1C; criterion not met
3) C[C@@H]1CCN(C(=O)c2cnccn2)C[C@H]1c1cc(C(F)F)nc2ncnn12; criterion not met
4) Cc1nc2cccc(C(=O)N3CC[C@@H](C)[C@H](c4cc(C(F)F)nc5ncnn45)C3)c2o1; criterion not met
5) CC(C)Oc1cc(C(=O)N2CC[C@@H](C)[C@H](c3cc(C(F)F)nc4ncnn34)C2)cc(C(C)C)c1; criterion not met

Consider the compound `O=C(c1ccc(OC(F)(F)F)c(F)c1)N1[C@H]2CC[C@H](c3cc(C(F)F)nc4ncnn34)[C@@H]1CC2` . Is its IC50 strictly less than 2 µM?
criterion not met

Please let me know if `Cc1cc(C(=O)N2CC[C@@H](C)[C@](F)(c3cc(C(F)F)nc4ncnn34)C2)cc(C)n1` shows IC50 below 2 µM.
criterion not met

Please determine if `Cc1nc2ccc(C(=O)N3[C@H]4CC[C@H](c5cc(C(F)F)nc6ncnn56)[C@@H]3CC4)cc2s1` is below 2 µM in terms of IC50.
criterion not met
